System: Enterococcus faecalis
Method Description: Antimicrobial activity against Streptococcus faecalis by broth dilution technique
Assay type: functional
Quantity: MIC

Solved entries (count: 2):
>>> result("O=C1N/C(=N/c2nsc3ccccc23)S/C1=C\\c1ccc(Cl)cc1")
"> 100 µg/mL"
>>> result("O=C1N/C(=N\\c2nccs2)S/C1=C\\c1cccc(Cl)c1")
"50 µg/mL"

// next entry
Input line: State its MIC for this molecule: "O=C1N/C(=N/c2nsc3ccccc23)S/C1=C\c1cccc([N+](=O)[O-])c1"
Output line: > 100 µg/mL

====

System: Staphylococcus epidermidis
Method Description: Antimicrobial activity against penicillin-resistant Staphylococcus epidermidis by broth dilution technique
Type: functional
Quantity: MIC (µg/mL)
# output: bare number, implied unit µg/mL

Solved entries (count: 7):
>>> quantitative_result("O=C1N/C(=N\\c2nc3ccccc3s2)S/C1=C\\c1ccccc1Cl")
25
>>> quantitative_result("COc1cc(/C=C2\\S/C(=N/c3nc4ccccc4s3)NC2=O)ccc1O")
12
>>> quantitative_result("CC1(C)S[C@@H]2[C@H](NC(=O)[C@H](N)c3ccccc3)C(=O)N2[C@H]1C(=O)O")
25
>>> quantitative_result("O=C1N/C(=N\\c2nccs2)S/C1=C\\c1ccccc1[N+](=O)[O-]")
25
>>> quantitative_result("O=C1N/C(=N\\c2nccs2)S/C1=C\\c1ccccc1")
50
>>> quantitative_result("COc1ccc(/C=C2\\S/C(=N/c3nccs3)NC2=O)cc1")
12
>>> quantitative_result("O=C1CS/C(=N/c2nc3ccccc3s2)N1")
100

// next entry
Input line: State its MIC for this compound: "O=C1N/C(=N\c2nc3ccccc3s2)S/C1=C\c1cccc(Cl)c1"
Output line: 12

====

Test system: Bacillus subtilis
Method Description: Antimicrobial activity against Bacillus subtilis ATCC 6633 by broth dilution technique
Format: functional
Quantity: MIC (µg/mL)
# output: bare number, implied unit µg/mL

Solved entries (count: 6):
>>> quantitative_result("O=C1N/C(=N\\c2nc3ccccc3s2)S/C1=C\\c1ccccc1Cl")
12
>>> quantitative_result("O=C1CS/C(=N/c2nc3ccccc3s2)N1")
12
>>> quantitative_result("O=C1N/C(=N\\c2nccs2)S/C1=C\\c1cccc(Cl)c1")
0.3
>>> quantitative_result("O=C1N/C(=N\\c2nc3ccccc3s2)S/C1=C\\c1ccc(Cl)cc1")
12
>>> quantitative_result("CC1(C)S[C@@H]2[C@H](NC(=O)[C@H](N)c3ccccc3)C(=O)N2[C@H]1C(=O)O [AMPICILLIN]")
0.007
>>> quantitative_result("O=C1N/C(=N\\c2nc3ccccc3s2)S/C1=C\\c1cccc([N+](=O)[O-])c1")
12

// next entry
Input line: State its MIC for this molecule: "O=C1CSC(Nc2nccs2)=N1"
Output line: 50

====

This section presents compounds with their documented MIC values.
System: Staphylococcus epidermidis
Method Description: Antimicrobial activity against penicillin-resistant Staphylococcus epidermidis by broth dilution technique
Format: functional
# output: bare number, implied unit µg/mL

>>> quantitative_result("O=C1N/C(=N\\c2nccs2)S/C1=C\\c1cccc(Cl)c1")
1.5
>>> quantitative_result("O=C1N/C(=N\\c2nc3ccccc3s2)S/C1=C\\c1ccc(Cl)cc1")
12
>>> quantitative_result("O=C1N/C(=N\\c2nccs2)S/C1=C\\c1ccc([N+](=O)[O-])cc1")
6

// next entry
Input line: State its MIC for this compound: "O=C1N/C(=N\c2nc3ccccc3s2)S/C1=C\c1cccc([N+](=O)[O-])c1"
Output line: 6

====

Test system: Priestia megaterium
Method Description: Antimicrobial activity against Bacillus megaterium by broth dilution technique
Format: functional
Quantity: MIC (µg/mL)
# output: bare number, implied unit µg/mL

Solved entries (count: 3):
>>> quantitative_result("COc1cc(/C=C2\\S/C(=N/c3nc4ccccc4s3)NC2=O)ccc1O")
12
>>> quantitative_result("O=C1N/C(=N\\c2nc3ccccc3s2)S/C1=C\\c1cccc(Cl)c1")
12
>>> quantitative_result("O=C1N/C(=N/c2nsc3ccccc23)S/C1=C\\c1ccc(Cl)cc1")
0.7

Input line: State its MIC for this molecule: "COc1ccc(/C=C2\S/C(=N/c3nccs3)NC2=O)cc1"
Output line: 1.5

Input line: State its MIC for this molecule: "O=C1N/C(=N\c2nc3ccccc3s2)S/C1=C\c1ccc(Cl)cc1"
Output line: 12

Input line: State its MIC for this molecule: "O=C1N/C(=N\c2nc3ccccc3s2)S/C1=C\c1ccccc1Cl"
Output line: 12

Input line: State its MIC for this molecule: "O=C1N/C(=N\c2nc3ccccc3s2)S/C1=C\c1cccc([N+](=O)[O-])c1"
Output line: 12

Input line: State its MIC for this molecule: "O=C1N/C(=N/c2nsc3ccccc23)S/C1=C\c1cccc([N+](=O)[O-])c1"
Output line: 0.7

Input line: State its MIC for this molecule: "O=C1CS/C(=N/c2nc3ccccc3s2)N1"
Output line: 25

Input line: State its MIC for this molecule: "O=C1N/C(=N\c2nccs2)S/C1=C\c1ccccc1[N+](=O)[O-]"
Output line: 3

====

This section presents molecules with their documented MIC values.
Test system: Bacillus subtilis
Method Description: Antimicrobial activity against Bacillus subtilis ATCC 6633 by broth dilution technique
Format: functional

>>> result("O=C1CS/C(=N\\c2nsc3ccccc23)N1")
"50 µg/mL"
>>> result("O=C1N/C(=N/c2nsc3ccccc23)S/C1=C\\c1ccc(Cl)cc1")
"3 µg/mL"
>>> result("O=C1N/C(=N/c2nsc3ccccc23)S/C1=C\\c1ccccc1Cl")
"> 100 µg/mL"
>>> result("O=C1N/C(=N\\c2nccs2)S/C1=C\\c1ccccc1[N+](=O)[O-]")
"6 µg/mL"
>>> result("COc1ccc(/C=C2\\S/C(=N/c3nccs3)NC2=O)cc1")
"1.5 µg/mL"

Input line: State its MIC for this molecule: "COc1ccc(/C=C2\S/C(=N\c3nsc4ccccc34)NC2=O)cc1"
Output line: > 100 µg/mL

Input line: State its MIC for this molecule: "O=C1N/C(=N/c2nsc3ccccc23)S/C1=C\c1cccc([N+](=O)[O-])c1"
Output line: > 100 µg/mL

Input line: State its MIC for this molecule: "O=C1N/C(=N\c2nccs2)S/C1=C\c1ccccc1"
Output line: 0.7 µg/mL

Input line: State its MIC for this molecule: "O=C1N/C(=N/c2nsc3ccccc23)S/C1=C\c1ccccc1[N+](=O)[O-]"
Output line: > 100 µg/mL

Input line: State its MIC for this molecule: "O=C1N/C(=N\c2nc3ccccc3s2)S/C1=C\c1cccc(Cl)c1"
Output line: 12 µg/mL

Input line: State its MIC for this molecule: "O=C1N/C(=N\c2nccs2)S/C1=C\c1ccc([N+](=O)[O-])cc1"
Output line: 1.5 µg/mL

====

Tested on: Enterococcus faecalis
Method Description: Antimicrobial activity against Streptococcus faecalis by broth dilution technique
Type: functional
This section presents molecules with their documented MIC values.
# output: bare number, implied unit mg/L

Solved entries (count: 4):
>>> quantitative_result("O=C1N/C(=N\\c2nccs2)S/C1=C\\c1ccccc1")
25
>>> quantitative_result("O=C1N/C(=N\\c2nc3ccccc3s2)S/C1=C\\c1ccc(Cl)cc1")
100
>>> quantitative_result("O=C1N/C(=N/c2nsc3ccccc23)S/C1=C\\c1ccccc1[N+](=O)[O-]")
100
>>> quantitative_result("O=C1N/C(=N\\c2nccs2)S/C1=C\\c1ccccc1[N+](=O)[O-]")
50

// next entry
Input line: State its MIC for this molecule: CC1(C)S[C@@H]2[C@H](NC(=O)[C@H](N)c3ccccc3)C(=O)N2[C@H]1C(=O)O [AMPICILLIN]
Output line: 0.7

====

Test system: Enterococcus faecium
Method Description: Antimicrobial activity against Streptococcus faecium by broth dilution technique
Format: functional
Quantity: MIC

>>> result("COc1cc(/C=C2\\S/C(=N/c3nc4ccccc4s3)NC2=O)ccc1O")
"> 100 µg/mL"
>>> result("O=C1N/C(=N\\c2nc3ccccc3s2)S/C1=C\\c1ccccc1Cl")
"> 100 µg/mL"
>>> result("CC1(C)S[C@@H]2[C@H](NC(=O)[C@H](N)c3ccccc3)C(=O)N2[C@H]1C(=O)O")
"100 µg/mL"
>>> result("O=C1N/C(=N/c2nsc3ccccc23)S/C1=C\\c1cccc([N+](=O)[O-])c1")
"> 100 µg/mL"
>>> result("O=C1N/C(=N\\c2nccs2)S/C1=C\\c1ccc([N+](=O)[O-])cc1")
"> 100 µg/mL"
>>> result("O=C1N/C(=N\\c2nccs2)S/C1=C\\c1ccccc1")
"25 µg/mL"
>>> result("O=C1N/C(=N/c2nsc3ccccc23)S/C1=C\\c1ccc(Cl)cc1")
"> 100 µg/mL"

// next entry
Input line: Please tell me the measured MIC for "O=C1N/C(=N\c2nc3ccccc3s2)S/C1=C\c1ccc(Cl)cc1" ; system: Enterococcus faecium.
Output line: > 100 µg/mL
